Recorded values, source PubChem BioAssay (NCI).

- Test system: UACC-257 melanoma
- assay protocol: NCI-60 one-dose screen, 48 h
- cond: 10 µM unless noted
This is part of a sample that, as a whole, favours compounds with a hit. Of some 83,000 tested, about 20% had one in any assay. Activity calls are given as the source filed them. How the source made its calls: active means growth percent below 10; inactive means the rest.
Please reply with one of these outcomes: active, inactive

Task: Recorded test call requested for CCn1c(O)c(/C=N/NC(=O)C(C)c2ccc(CC(C)C)cc2)sc1=S (centres undefined)
Result: inactive

Task: Recorded test call requested for CC(=O)Nc1ccc(-n2c(O)c(/C=N/NC(=O)Cc3ccccc3Nc3c(Cl)cccc3Cl)sc2=S)cc1
Result: inactive

Task: Recorded test call requested for CC(=O)O[C@H]1CC[C@]2(C)[C@H]3CC=C4[C@@H]5CC(C)(C)CC[C@]5(C(=O)NCCNCCN)CC[C@@]4(C)[C@]3(C)CC[C@H]2C1(C)C
Result: active

Task: Recorded test call requested for C#CCOc1ccc2ncnc(N3CCN(C(=O)CCl)CC3)c2c1
Result: inactive
